# System: diabetic (db/db) mice
# test-protocol: Blood glucose lowering activity in diabetic (db/db) mice
# Format: in vivo, mouse (db/db, C57BL/KsJ)
# condition-parameters: Mus musculus, po, 96 h; 100 mg/kg/day p.o. (gavage), Day 4 mean of 2 and 4 hour samples vs Day 1 baseline, difference from vehicle; read-out: % Change from vehicle (plasma glucose)
measure: change in vivo at 100 mg/kg (%)
Your answer is read as %, so omit the unit and give the number.

Could you please provide reported change in vivo at 100 mg/kg for O=C1CC2(C(=O)N1)c1ccccc1S(=O)(=O)N2Cc1c(F)cccc1Cl (stereo not drawn) ? Thanks!
-17

Could you please provide reported change in vivo at 100 mg/kg for O=C1CC2(C(=O)N1)c1ccccc1C(=O)N2Cc1ccccc1 (stereo not drawn) ? Thanks!
-22

Could you please provide reported change in vivo at 100 mg/kg for O=C1CC2(C(=O)N1)c1ccccc1S(=O)(=O)N2Cc1ccc(Br)cc1 (stereo not drawn) ? Thanks!
-37

Could you please provide reported change in vivo at 100 mg/kg for CN1C(=O)c2cc(Cl)c(Cl)cc2C12CC(=O)NC2=O (stereo not drawn) ? Thanks!
-31

Could you please provide reported change in vivo at 100 mg/kg for O=C1CC2(C(=O)N1)c1ccccc1C(=O)N2Cc1ccc(Br)cc1F (stereo not drawn) ? Thanks!
-36

Could you please provide reported change in vivo at 100 mg/kg for O=C1CC2(C(=O)N1)c1ccccc1S(=O)(=O)N2Cc1ccc(Br)cc1F (stereo not drawn) ? Thanks!
-48

Could you please provide reported change in vivo at 100 mg/kg for O=C1CC2(C(=O)N1)c1ccccc1S(=O)(=O)N2Cc1ccc(Cl)c(Cl)c1 (stereo not drawn) ? Thanks!
-27

Could you please provide reported change in vivo at 100 mg/kg for CC1(COc2ccc(CC3SC(=O)NC3=O)cc2)CCCCC1 (racemic) [Ciglitazone, reference compound] ? Thanks!
-33

Could you please provide reported change in vivo at 100 mg/kg for O=C1CC2(C(=O)N1)c1ccccc1C(=O)N2Cc1ccc(Cl)c(Cl)c1 (stereo not drawn) ? Thanks!
-21
